Values were extracted from patent US8546414B2.

Biological target: NaV1.3 (Homo sapiens)
Construct: expressed in transfected cells; host or cells: HEK293
Sequence (Q9NY46 whole entry): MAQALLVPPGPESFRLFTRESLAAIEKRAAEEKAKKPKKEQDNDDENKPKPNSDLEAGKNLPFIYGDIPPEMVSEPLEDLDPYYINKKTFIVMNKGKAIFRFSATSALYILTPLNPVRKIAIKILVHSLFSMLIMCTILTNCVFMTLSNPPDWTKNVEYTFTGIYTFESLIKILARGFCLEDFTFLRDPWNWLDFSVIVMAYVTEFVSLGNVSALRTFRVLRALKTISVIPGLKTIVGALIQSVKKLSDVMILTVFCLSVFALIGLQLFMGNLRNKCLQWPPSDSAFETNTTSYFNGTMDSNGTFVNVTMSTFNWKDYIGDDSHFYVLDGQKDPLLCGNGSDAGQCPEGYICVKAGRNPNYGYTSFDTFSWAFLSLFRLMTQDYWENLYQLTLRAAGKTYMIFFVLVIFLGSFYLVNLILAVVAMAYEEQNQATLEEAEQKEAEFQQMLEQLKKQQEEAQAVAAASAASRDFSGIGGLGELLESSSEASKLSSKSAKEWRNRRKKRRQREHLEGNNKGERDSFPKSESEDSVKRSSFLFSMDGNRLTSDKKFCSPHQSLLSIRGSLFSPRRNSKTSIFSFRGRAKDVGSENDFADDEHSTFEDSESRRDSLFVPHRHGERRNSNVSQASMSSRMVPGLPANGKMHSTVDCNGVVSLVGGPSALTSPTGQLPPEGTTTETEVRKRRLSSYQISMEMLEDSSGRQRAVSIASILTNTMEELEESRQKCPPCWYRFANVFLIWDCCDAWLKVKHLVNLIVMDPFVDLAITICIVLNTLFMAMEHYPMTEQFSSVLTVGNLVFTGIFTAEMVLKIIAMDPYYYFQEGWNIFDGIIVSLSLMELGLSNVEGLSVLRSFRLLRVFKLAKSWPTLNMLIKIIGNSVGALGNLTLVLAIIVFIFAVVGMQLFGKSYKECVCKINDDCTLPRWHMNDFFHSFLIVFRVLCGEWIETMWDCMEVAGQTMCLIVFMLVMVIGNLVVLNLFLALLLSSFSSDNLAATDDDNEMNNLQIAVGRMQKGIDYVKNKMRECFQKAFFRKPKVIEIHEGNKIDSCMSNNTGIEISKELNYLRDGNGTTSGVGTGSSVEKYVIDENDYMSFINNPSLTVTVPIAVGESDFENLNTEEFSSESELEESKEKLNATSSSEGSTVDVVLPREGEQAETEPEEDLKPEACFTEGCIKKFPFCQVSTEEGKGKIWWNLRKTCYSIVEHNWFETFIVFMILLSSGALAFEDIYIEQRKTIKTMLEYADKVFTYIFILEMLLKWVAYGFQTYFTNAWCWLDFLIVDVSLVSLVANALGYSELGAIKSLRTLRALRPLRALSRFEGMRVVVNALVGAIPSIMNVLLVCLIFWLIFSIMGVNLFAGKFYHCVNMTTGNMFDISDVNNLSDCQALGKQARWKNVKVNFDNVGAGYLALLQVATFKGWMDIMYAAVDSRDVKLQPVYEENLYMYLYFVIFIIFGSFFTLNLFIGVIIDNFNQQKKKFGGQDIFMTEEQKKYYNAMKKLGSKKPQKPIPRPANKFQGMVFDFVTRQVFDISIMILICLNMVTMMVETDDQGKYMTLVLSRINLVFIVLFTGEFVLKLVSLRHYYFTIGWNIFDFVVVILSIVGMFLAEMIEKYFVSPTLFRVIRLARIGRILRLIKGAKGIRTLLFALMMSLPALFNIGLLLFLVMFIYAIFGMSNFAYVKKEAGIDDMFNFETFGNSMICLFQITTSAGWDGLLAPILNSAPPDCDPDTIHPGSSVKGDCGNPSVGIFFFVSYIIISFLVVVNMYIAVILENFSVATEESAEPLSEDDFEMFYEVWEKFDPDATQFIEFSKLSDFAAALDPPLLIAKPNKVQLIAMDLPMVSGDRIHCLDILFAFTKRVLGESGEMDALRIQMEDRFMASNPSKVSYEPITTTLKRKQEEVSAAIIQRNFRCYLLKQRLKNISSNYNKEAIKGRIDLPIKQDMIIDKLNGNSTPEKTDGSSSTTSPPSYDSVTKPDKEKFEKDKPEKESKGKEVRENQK
Assay: VIPR optical membrane potential assay with electrical stimulation, NaV1.3
Format: cell-based
Conditions: Table 9, NaV 1.3 receptors
pIC50: −log10 of the molar value.
Listed compounds paired with reported pIC50

COc1cccc(Nc2ncc(C(=O)N(Cc3ccccc3)C(C)C)c(-c3ccccc3F)n2)c1 [compound 15] | < 5.00
COCCNc1ncc(C(=O)N(C)C2CCCCC2)c(-c2ccc(C#N)cc2)n1 [compound 256] | < 5.00
CC(C)N(Cc1ccccc1)C(=O)c1cnc(N2CCN(C)CC2)nc1-c1ccccc1F [compound 167] | < 5.00
CC(=O)N1CCN(c2ncc(C(=O)N(Cc3ccccc3)C(C)C)c(-c3ccccc3F)n2)CC1 [compound 216] | < 5.00

Query: Given the entry COc1ccc(CN(C(=O)c2cnc(N3CCSCC3)nc2-c2ccccc2F)C2CC2)cc1 [compound 164] , what pIC50 was observed with NaV1.3 (Homo sapiens)?
Response: 5.00 to 5.70

Query: # returns recorded pIC50 (system: NaV1.3 (Homo sapiens)) for CC(C)(C)c1ccc(CN(C(=O)c2cnc(N3CCOCC3)nc2-c2ccccc2F)C2CC2)cc1 [compound 161]
Response: 5.00 to 5.70

Query: # get_value(readout= pIC50, system= NaV1.3 (Homo sapiens)) for CC(=O)NCCNc1ncc(C(=O)N(Cc2ccccc2)C(C)C)c(-c2ccccc2F)n1 [compound 291]
Response: < 5.00

Query: Can you look up pIC50 on NaV1.3 (Homo sapiens) for CC(C)N(C(=O)c1cnc(N2CCOCC2)nc1-c1ccccc1F)c1ccc2c(c1)OCCO2 [compound 67] ?
Response: < 5.00

Query: Reported pIC50 for NaV1.3 (Homo sapiens), given CCN(Cc1ccccc1)C(=O)c1cnc(N2CCCC(C(N)=O)C2)nc1-c1ccccc1F (stereo not shown) [compound 289] ?
Response: < 5.00

Query: Value wanted: pIC50 (NaV1.3 (Homo sapiens)) of entry CC(C)N(C(=O)c1cnc(N2CCCCC2)nc1-c1ccccc1Cl)c1cccc(C(C)(C)C)c1 [compound 3]
Response: 5.00 to 5.70

Query: Look up pIC50 with NaV1.3 (Homo sapiens) for this compound: CCN(Cc1ccccc1)C(=O)c1cnc(N2CCOCC2)nc1-c1ccccc1F [compound 350]
Response: < 5.00

* * *

// values below are reported IC50
Molecular target: CaV2.2 (Homo sapiens)
Experiment: VIPR optical membrane potential assay with electrical stimulation, CaV2.2
Details: Table 9, CaV 2.2 receptors
Experimental: A. Optical Methods for Assaying CaV Inhibition Properties of Compounds: Antagonist properties of test compounds were assessed as follows. Cells expressing the CaV of interest were placed into microtiter plates. […] The cells were stimulated with electrical means to evoke a CaV dependent membrane potential change from unblocked channels, which was detected and measured with trans-membrane potential-sensitive dyes. Antagonists were detected as a decreased membrane potential response to the stimulus. […]

For orientation, consider the following solved cases.
CCN(Cc1ccccc1)C(=O)c1cnc(N2CCCC(C(N)=O)C2)nc1-c1ccc(C#N)cc1 (centres unmarked) | > 10 µM
CC(C)N(Cc1ccccc1)C(=O)c1cnc(NCC(=O)O)nc1-c1ccccc1F | > 10 µM
CC(C)N(Cc1ccc(C(C)(C)C)cc1)C(=O)c1cnc(N2CCCCC2)nc1-c1ccccc1Cl | 2 to 10 µM

Query: Look up IC50: O=C(c1cnc(N2CCOCC2)nc1-c1ccccc1F)N(Cc1ccccc1)C1CCCC1
Response: 2 to 10 µM

Query: I have this molecule here, CC(=O)N1CCN(c2ncc(C(=O)N3CCC(C)CC3)c(-c3ccc(-c4ccccc4)cc3)n2)CC1 , and I need its recorded IC50.
Response: 2 to 10 µM

Query: Requested read-out: IC50. Entry: COCCCNC(=O)c1cnc(NCCc2ccc(OC)cc2)nc1-c1cccc(C)c1
Response: > 10 µM

Query: Consider the molecule shown here: CC1CCN(C(=O)c2cnc(N3CCOCC3)nc2-c2ccccc2F)CC1 What is its recorded IC50?
Response: > 10 µM

Query: Which IC50 value is on record for CCN(Cc1ccccc1)C(=O)c1cnc(N2CCCCC2)nc1-c1ccccc1F ?
Response: 2 to 10 µM

* * *

Molecular target: NaV1.3 (Homo sapiens)
Construct: expressed in transfected cells; host or cells: HEK293
Test: VIPR optical membrane potential assay with electrical stimulation, NaV1.3
Type: cell-based
Conditions: Table 9, NaV 1.3 receptors
experimental readout: IC50

Recorded IC50, per entry:
CC(C)N(Cc1ccccc1)C(=O)c1cnc(N2CCOCC2)nc1-c1cccc(/C=C/C(=O)O)c1 | > 10 µM
CC(C)N(C(=O)c1cnc(N2CCOCC2)nc1-c1ccccc1F)c1ccccc1 | > 10 µM
CC(C)N(Cc1cccc(O)c1)C(=O)c1cnc(N2CCOCC2)nc1-c1ccccc1F | > 10 µM

Query: Please report the recorded IC50 for CCN(C)c1ncc(C(=O)NCCCOC)c(-c2cccc(C)c2)n1 .
Response: > 10 µM

Query: Name the recorded IC50 for CCC(COC)N(Cc1ccccc1)C(=O)c1c(C)nc(N2CCOCC2)nc1-c1ccccc1F (centres unmarked) .
Response: 2 to 10 µM

* * *

Molecular target: NaV1.3 (Homo sapiens)
Construct: expressed in transfected cells; host or cells: HEK293
Assay: VIPR optical membrane potential assay with electrical stimulation, NaV1.3
Format: cell-based
Conditions: Table 9, NaV 1.3 receptors
experimental readout: IC50

Study these solved cases before continuing.
CCN(Cc1ccccc1)C(=O)c1cnc(N2CCOCC2)nc1-c1ccc(C#N)cc1 [compound 313] | > 10 µM
CC(C)N(C(=O)c1cnc(N2CCC3CCCCC3C2)nc1-c1ccccc1F)c1ccc2c(c1)OCCO2 (stereo not shown) [compound 151] | 2 to 10 µM
O=C(c1cnc(N2CCOCC2)nc1-c1ccccc1F)N(Cc1ccccc1)C1CC1 [compound 100] | 2 to 10 µM

We now examine a further compound.
Query: Requested field: IC50. Item: CC(C)N(Cc1ccc(C(C)(C)C)cc1)C(=O)c1cnc(N2CCOCC2)nc1-c1ccccc1F [compound 24]
Response: 2 to 10 µM

* * *

Molecular target: CaV2.2 (Homo sapiens, UniProt Q00975)
Test: VIPR optical membrane potential assay with electrical stimulation, CaV2.2
Conditions: Table 9, CaV 2.2 receptors
pIC50: −log10 of the molar value.
Reported pIC50 values for a set of compounds

Cc1nc(N2CCOCC2)nc(-c2ccccc2F)c1C(=O)N(Cc1ccccc1)C(C)C [compound 13] | 5.00 to 5.70
COc1cccc(OC)c1CNc1ncc(C(=O)N(C)CC(C)C)c(-c2ccccc2F)n1 | < 5.00
Cc1nc(N2CCOCC2)nc(-c2ccccc2F)c1C(=O)N(Cc1ccccc1)C(C)C [compound 338] | < 5.00
COc1cccc(CN(C(=O)c2cnc(NC(C)c3ccccc3)nc2-c2ccccc2F)C(C)C)c1 (centres unmarked) | > 5.70
CCC(C)Nc1ncc(C(=O)N(C)CC)c(-c2ccc(C#N)cc2)n1 (centres unmarked) | < 5.00
O=C(NC1CC1c1ccccc1)c1cnc(N2CCOCC2)nc1-c1ccccc1F (centres unmarked) | < 5.00
CC1CCCCC1NC(=O)c1cnc(N2CCOCC2)nc1-c1ccccc1F (centres unmarked) | < 5.00
CC(C)CN(C)C(=O)c1cnc(NCCc2cccc(F)c2)nc1-c1ccc(C#N)cc1 | 5.00 to 5.70
CC(C)N(C(=O)c1cnc(N2CCSCC2)nc1-c1ccccc1F)c1ccccc1 | 5.00 to 5.70
CCN(C)c1ncc(C(=O)NCCOC)c(-c2ccc(C#N)cc2)n1 | < 5.00

Query: CaV2.2 (Homo sapiens, UniProt Q00975) / pIC50 / CCN(Cc1cccc(C)c1)C(=O)c1cnc(N2CCOCC2)nc1-c1cccc(C)c1 : value?
Response: < 5.00

Query: Which pIC50 is reported with CaV2.2 (Homo sapiens, UniProt Q00975) for this entry: CCCCNc1ncc(C(=O)N(C)CC(C)C)c(-c2cccc(C)c2)n1 ?
Response: < 5.00

Query: What measured pIC50 is associated with N=C(N)NCCCNC(=O)c1cnc(N2CCC3CCCCC3C2)nc1-c1ccccc1F (centres unmarked) on CaV2.2 (Homo sapiens, UniProt Q00975)?
Response: < 5.00

Query: Find pIC50 (CaV2.2 (Homo sapiens, UniProt Q00975)) for the entry Cc1nc(N2CCOCC2)nc(-c2ccccc2F)c1C(=O)N(Cc1ccccc1)C1CC1
Response: 5.00 to 5.70

Query: Field: pIC50 (CaV2.2 (Homo sapiens, UniProt Q00975)). Entry: O=C(NC1Cc2ccccc2C1)c1cnc(N2CCOCC2)nc1-c1ccccc1F
Response: < 5.00

Query: Param readout = pIC50; param system = CaV2.2 (Homo sapiens, UniProt Q00975); param query = Cc1nc(N2CCCCC2)nc(-c2ccccc2F)c1C(=O)N(Cc1ccc2c(c1)CCO2)C1CC1 ; response: value
Response: < 5.00

Query: Short answer please: pIC50, CaV2.2 (Homo sapiens, UniProt Q00975), entry CCNc1ncc(C(=O)N(Cc2ccccc2)C(C)C)c(-c2ccccc2F)n1
Response: < 5.00
